Molecular target: T1, human IL-33 (mm2) (human, UniProt O95760 112-270)
T1 chain: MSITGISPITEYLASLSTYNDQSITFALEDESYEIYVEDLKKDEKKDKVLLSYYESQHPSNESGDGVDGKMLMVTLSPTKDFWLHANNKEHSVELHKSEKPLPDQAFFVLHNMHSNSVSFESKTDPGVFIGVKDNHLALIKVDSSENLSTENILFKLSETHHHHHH
Experiment: cell-based or functional assay
ATTRIBUTE_MEASURED: estimated IC50, HEK293 ST2 NFkB (nM)
Numeric answer only, unit nM assumed.

BINDER	OBSERVED_VALUE
9B3-5 (antibody, human IgG1, kappa, V domains shown) VH: EVQLVETGGGLVQPGRSLKLSCVASGFTFSNYWMYWIRQAPGMGLEWVSSINNDGGNTYYLDSVKGRFTISRNNAENTVYLQMNSLRSEDTATYYCAKGHYSYTSYSFGYWGQGTLVTVSS VL: DIQMTQSPSVLSASVGDRVTLSCKASHNINKHLDWYQQKVGEAPKLLIYFTNNLQTGIPSRFSGSGSGTDYTLTISSLQPEDVATYFCFQYNSGWTFGQGTKVEIKR	0.106
9B3-2A (antibody, human IgG1, kappa, V domains shown) VH: EVQLVETGGGLVQPGRSLKLSCVASGFTFSNYWMYWIRQAPGMGLEWVSSINNDGGNTYYLDSVKGRFTISRNNAENTVYLQMNSLRSEDTATYYCAKGHYSYSSYSFGYWGQGTLVTVSS VL: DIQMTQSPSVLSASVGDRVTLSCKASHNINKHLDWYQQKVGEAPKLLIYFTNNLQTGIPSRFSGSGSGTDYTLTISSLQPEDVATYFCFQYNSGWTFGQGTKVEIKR	0.056

Given 9B3-36 (antibody, human IgG1, kappa, V domains shown) VH: EVQLVETGGGLVQPGRSLKLSCVASGFTFSNYWMYWIRQAPGMGLEWVSSINNDGGNTYYLDSVKGRFTISRNNAENTVYLQMNSLRSEDTATYYCAKGHYYYTSYSFAYWGQGTLVTVSS VL: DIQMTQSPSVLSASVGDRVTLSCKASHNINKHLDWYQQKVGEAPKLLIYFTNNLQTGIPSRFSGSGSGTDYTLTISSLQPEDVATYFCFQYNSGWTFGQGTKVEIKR , state its recorded estimated IC50, HEK293 ST2 NFkB.
0.251

Given 9B3-15 (antibody, human IgG1, kappa, V domains shown) VH: EVQLVETGGGLVQPGRSLKLSCVASGFTFSNYWMYWIRQAPGMGLEWVSSINNDGGNTYYLDSVKGRFTISRNNAENTVYLQMNSLRSEDTATYYCAKGHYSYSSYSFANWGQGTLVTVSS VL: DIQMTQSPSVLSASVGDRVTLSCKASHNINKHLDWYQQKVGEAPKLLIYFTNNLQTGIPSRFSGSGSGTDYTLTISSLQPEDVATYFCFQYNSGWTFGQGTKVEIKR , state its recorded estimated IC50, HEK293 ST2 NFkB.
0.101

Given 9B3-3 (antibody, human IgG1, kappa, V domains shown) VH: EVQLVETGGGLVQPGRSLKLSCVASGFTFSNYWMYWIRQAPGMGLEWVSSINNDGGNTYYLDSVKGRFTISRNNAENTVYLQMNSLRSEDTATYYCAKGHYSYSSYSIDYWGQGTLVTVSS VL: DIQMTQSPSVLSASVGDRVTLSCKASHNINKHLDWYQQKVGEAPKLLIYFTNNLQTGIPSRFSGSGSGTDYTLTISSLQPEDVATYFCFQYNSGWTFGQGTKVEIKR , state its recorded estimated IC50, HEK293 ST2 NFkB.
0.048

Given 9B3-1 (antibody, human IgG1, kappa, V domains shown) VH: EVQLVETGGGLVQPGRSLKLSCVASGFTFSNYWMYWIRQAPGMGLEWVSSINNDGGNTYYLDSVKGRFTISRNNAENTVYLQMNSLRSEDTATYYCAKGHYYYSSYSLGYWGQGTLVTVSS VL: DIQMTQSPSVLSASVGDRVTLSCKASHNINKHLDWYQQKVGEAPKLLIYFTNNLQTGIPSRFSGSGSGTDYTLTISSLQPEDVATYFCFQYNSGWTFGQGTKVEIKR , state its recorded estimated IC50, HEK293 ST2 NFkB.
0.039

Given 9B3-2B (antibody, human IgG1, kappa, V domains shown) VH: EVQLVETGGGLVQPGRSLKLSCVASGFTFSNYWMYWIRQAPGMGLEWVSSINNDGGNTYYLDSVKGRFTISRNNAENTVYLQMNSLRSEDTATYYCVKGHYSYSSYSIDYWGQGTLVTVSS VL: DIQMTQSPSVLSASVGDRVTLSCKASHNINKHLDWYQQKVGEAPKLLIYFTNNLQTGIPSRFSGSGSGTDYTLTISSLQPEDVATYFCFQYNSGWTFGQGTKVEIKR , state its recorded estimated IC50, HEK293 ST2 NFkB.
0.048
